These data points were gathered from paper PMC9505425.

- Test system: BT-20 cells
- Measurement Description: MTT cytotoxicity assay, BT-20
- Type: cell-based, human
- Condition Context: Homo sapiens, BT-20, 48 h, BT-20, 7.5 uM, repeats, read-out: Cell viability %
Doc: threshold 50% (exclusive). Items with viability at 7.5 µM beneath it return Y; others return N.

Decide: viability at 7.5 µM of Cc1ccc(-n2c(-c3ccc(C(=O)N/N=C/c4ccc(O)cc4O)cc3)cc3c2cc(-c2ccc(C(=O)N/N=C/c4ccc(O)cc4O)cc2)n3-c2ccc(C)cc2)cc1 strictly below 50%? Y

Decide: viability at 7.5 µM of CCN(CC)c1ccc(/C=N/NC(=O)c2ccc(-c3cc4c(cc(-c5ccc(C(=O)N/N=C/c6ccc(N(CC)CC)cc6O)cc5)n4-c4ccc(C)cc4)n3-c3ccc(C)cc3)cc2)c(O)c1 strictly below 50%? N

Decide: viability at 7.5 µM of Cc1ccc(-n2c(-c3ccc(C(=O)NN)cc3)cc3c2cc(-c2ccc(C(=O)NN)cc2)n3-c2ccc(C)cc2)cc1 strictly below 50%? Y

Decide: viability at 7.5 µM of COc1cccc(/C=N/NC(=O)c2ccc(-c3cc4c(cc(-c5ccc(C(=O)N/N=C/c6cccc(OC)c6O)cc5)n4-c4ccc(C)cc4)n3-c3ccc(C)cc3)cc2)c1O strictly below 50%? Y

Decide: viability at 7.5 µM of Cc1ccc(-n2c(-c3ccc(C(=O)N/N=C/c4cc(F)ccc4O)cc3)cc3c2cc(-c2ccc(C(=O)N/N=C/c4cc(F)ccc4O)cc2)n3-c2ccc(C)cc2)cc1 strictly below 50%? N
